For each entry below, report its Log P value.
Settings: pH 2.7
Marks after values point to notes of the source that are not given here.

Given CS(=O)(=O)Oc1ccccc1C1CC(c2csc(C3CCN(C(=O)C(Br)C(=O)OCc4ccccc4)CC3)n2)=NO1 (stereo not shown) [Example I-68] , respond with its Log P.
3.31^[a]

Given C#CCOc1cccc(Cl)c1C1CC(c2csc(C3CCN(C(=O)C(Br)C(=O)OCC)CC3)n2)=NO1 (stereo not shown) [Example I-31] , respond with its Log P.
3.20^[a]

Given CS(=O)(=O)Oc1cccc(Cl)c1C1CC(c2csc(C3CCN(C(=O)CC(=O)OCc4ccccc4)CC3)n2)=NO1 (stereo not shown) [Example I-76] , respond with its Log P.
3.12^[a]

Given CS(=O)(=O)Oc1ccccc1C1CC(c2csc(C3CCN(C(=O)CC(=O)OCc4ccccc4)CC3)n2)=NO1 (stereo not shown) [Example I-75] , respond with its Log P.
2.89^[a]

Given C#CCOc1ccccc1C1CC(c2csc(C3CCN(C(=O)C(C(=O)OC(C)C)n4nc(C(F)F)cc4C(F)F)CC3)n2)=NO1 (stereo not shown) [Example I-09] , respond with its Log P.
3.93^[a]

Given CC(C)(C)OC(=O)C(C(=O)N1CCC(c2nc(C3=NOC(c4c(Cl)cccc4OS(C)(=O)=O)C3)cs2)CC1)n1nc(C(F)F)cc1C(F)F (stereo not shown) [Example I-64] , respond with its Log P.
4.00^[a]

Given CCOC(=O)CC(=O)N1CCC(c2nc(C3=NOC(c4c(Cl)cccc4OS(C)(=O)=O)C3)cs2)CC1 (stereo not shown) [Example I-49] , respond with its Log P.
2.53^[a]

Given CS(=O)(=O)Oc1cccc(Cl)c1C1CC(c2csc(C3CCN(C(=O)C(C(=O)OCc4ccccc4)n4nc(C(F)F)cc4C(F)F)CC3)n2)=NO1 (stereo not shown) [Example I-61] , respond with its Log P.
3.98^[a]

Given C#CCOc1cccc(Cl)c1C1CC(c2csc(C3CCN(C(=O)C(C(=O)OC(C)(C)C)n4nc(C(F)F)cc4C(F)F)CC3)n2)=NO1 (stereo not shown) [Example I-63] , respond with its Log P.
4.31^[a]

Given C#CCOc1ccccc1C1CC(c2csc(C3CCN(C(=O)C(Br)C(=O)OC(C)C)CC3)n2)=NO1 (stereo not shown) [Example I-32] , respond with its Log P.
3.43^[a]

Given C#CCOc1cccc(F)c1C1CC(c2csc(C3CCN(C(=O)C(C(=O)OCCOC)n4nc(C(F)F)cc4C(F)F)CC3)n2)=NO1 (stereo not shown) [Example I-02] , respond with its Log P.
3.37^[a]

Given CCOC(=O)C(Br)C(=O)N1CCC(c2nc(C3=NOC(c4ccccc4C=O)C3)cs2)CC1 (stereo not shown) [Example I-25] , respond with its Log P.
2.82^[a]

Given CCOC(=O)C(C(=O)N1CCC(c2nc(C3=NOC(c4c(F)cccc4OS(C)(=O)=O)C3)cs2)CC1)n1nc(C(F)F)cc1C(F)F (stereo not shown) [Example I-03] , respond with its Log P.
3.29^[a]

---

Settings: pH 2.7
Marks after values point to notes of the source that are not given here.
Result type: Log P

Given C#CCOc1ccccc1C1CC(c2csc(C3CCN(C(=O)CC(=O)OCc4ccccc4)CC3)n2)=NO1 (stereo not shown) , respond with its Log P.
3.30^[a]

Given CC(C)OC(=O)CC(=O)N1CCC(c2nc(C3=NOC(c4ccccc4OS(C)(=O)=O)C3)cs2)CC1 (stereo not shown) , respond with its Log P.
2.56^[a]

Given C#CCOc1cccc(F)c1C1CC(c2csc(C3CCN(C(=O)C(C(=O)OC(CC)CCCCC)n4nc(C(F)F)cc4C(F)F)CC3)n2)=NO1 (stereo not shown) , respond with its Log P.
5.22^[a]

Given CC(C)(C)OC(=O)CC(=O)N1CCC(c2nc(C3=NOC(c4c(Cl)cccc4OS(C)(=O)=O)C3)cs2)CC1 (stereo not shown) , respond with its Log P.
3.04^[a]

Given CCOC(=O)CC(=O)N1CCC(c2nc(C3=NOC(c4ccccc4OS(C)(=O)=O)C3)cs2)CC1 (stereo not shown) , respond with its Log P.
2.30^[a]

Given C#CCOc1ccccc1C1CC(c2csc(C3CCN(C(=O)CC(=O)OC(C)(C)C)CC3)n2)=NO1 (stereo not shown) , respond with its Log P.
3.22^[a]

Given CC(C)OC(=O)C(C(=O)N1CCC(c2nc(C3=NOC(c4ccccc4C=O)C3)cs2)CC1)n1nc(C(F)F)cc1C(F)F (stereo not shown) , respond with its Log P.
3.70^[a]

---

System: Pythium ultimum
Test: Pythium ultimum in vitro cell test
Assay type: cell-based
Settings: of active ingredient; 4 days incubation
Procedure: Pythium ultimum In Vitro Cell Test • Solvent: DMSO • Culture medium: 14.6 g anhydrous D-glucose (VWR), 7.1 g Mycological Peptone (Oxoid), 1.4 g granulated Yeast Extract (Merck), QSP liter • Inoculum: mycelial suspension […] Fungicides were evaluated for their ability to inhibit mycelium growth in liquid culture assay. […] After 4 days of incubation, the fungicidal efficacy of compounds was determined by spectrometric measurement of mycelium growth. […]
For each entry below, report its Eff. % (inhibition of fungal growth) value.
Kindly provide the numeric value in % only, without the unit symbol.

Given C#CCOc1cccc(Cl)c1C1CC(c2csc(C3CCN(C(=O)C(C(=O)OC(C)(C)C)n4nc(C(F)F)cc4C(F)F)CC3)n2)=NO1 (stereo not drawn) , respond with its Eff. % (inhibition of fungal growth).
90

Given CC(C)OC(=O)C(C(=O)N1CCC(c2nc(C3=NOC(c4c(F)cccc4OS(C)(=O)=O)C3)cs2)CC1)n1nc(C(F)F)cc1C(F)F (stereo not drawn) , respond with its Eff. % (inhibition of fungal growth).
99

Given C#CCOc1cccc(F)c1C1CC(c2csc(C3CCN(C(=O)C(C(=O)OCCOC)n4nc(C(F)F)cc4C(F)F)CC3)n2)=NO1 (stereo not drawn) , respond with its Eff. % (inhibition of fungal growth).
96

Given C#CCOc1ccccc1C1CC(c2csc(C3CCN(C(=O)C(C(=O)OC(C)(C)C)n4nc(C(F)F)cc4C(F)F)CC3)n2)=NO1 (stereo not drawn) , respond with its Eff. % (inhibition of fungal growth).
91

Given C#CCOc1cccc(F)c1C1CC(c2csc(C3CCN(C(=O)C(C(=O)OC(C)C)n4nc(C(F)F)cc4C(F)F)CC3)n2)=NO1 (stereo not drawn) , respond with its Eff. % (inhibition of fungal growth).
97

Given C#CCOc1cccc(F)c1C1CC(c2csc(C3CCN(C(=O)C(Br)C(=O)OC(C)C)CC3)n2)=NO1 (stereo not drawn) , respond with its Eff. % (inhibition of fungal growth).
99

---

Assay: physchem
Settings: pH 2.7
Result type: chromatographic logP
Form field (numeric): enter value without unit.

Given C#CCOc1ccccc1C1CC(c2csc(C3CCN(C(=O)OC(C)(C)C)CC3)n2)=NO1 (centres unmarked) , respond with its chromatographic logP.
4.07

Given N#CC1CCN(C(=O)CC(=O)OCc2ccccc2)CC1 [IV-02] , respond with its chromatographic logP.
1.85

Given CS(=O)(=O)Oc1ccccc1C1CC(c2csc(C3CCN(C(=O)C(C(=O)OCc4ccccc4)n4nc(C(F)F)cc4C(F)F)CC3)n2)=NO1 (centres unmarked) [Example I-60] , respond with its chromatographic logP.
3.77

Given C#CCOc1ccccc1C1CC(c2csc(C3CCN(C(=O)CC(=O)OCC)CC3)n2)=NO1 (centres unmarked) [Example I-41] , respond with its chromatographic logP.
2.7

Given N#CC1CCN(C(=O)C(C(=O)OCc2ccccc2)n2nc(C(F)F)cc2C(F)F)CC1 (centres unmarked) [IV-04] , respond with its chromatographic logP.
2.94

Given N#CC1CCN(C(=O)C(Br)C(=O)OCc2ccccc2)CC1 (centres unmarked) [IV-03] , respond with its chromatographic logP.
2.24

Given NC(=S)C1CCN(C(=O)C(C(=O)OCc2ccccc2)n2nc(C(F)F)cc2C(F)F)CC1 (centres unmarked) [II-01] , respond with its chromatographic logP.
2.65

Given CS(=O)(=O)Oc1ccccc1C1CC(C(=O)CCl)=NO1 (centres unmarked) , respond with its chromatographic logP.
2.37

Given C#CCOc1ccccc1C1CC(c2csc(C3CCN(C(=O)C(Br)C(=O)OCC)CC3)n2)=NO1 (centres unmarked) [Example I-30] , respond with its chromatographic logP.
3.18

Given C#CCOc1ccccc1C1CC(c2csc(C3CCNCC3)n2)=NO1 (centres unmarked) , respond with its chromatographic logP.
1.26

Given C#CCOc1ccccc1C1CC(c2csc(C3CCN(C(=O)C(C(=O)OCC)n4nc(C(F)F)cc4C(F)F)CC3)n2)=NO1 (centres unmarked) [Example I-15] , respond with its chromatographic logP.
3.69

---

For each entry below, report its Eff. % (preventive efficacy) value.
Test system: Phytophthora infestans
Assay type: in vivo
Settings: tomatoes, spray, 100 ppm of active ingredient; evaluated 3 days after inoculation
Kindly provide the numeric value in % only, without the unit symbol.

State measured Eff. % (preventive efficacy) of the compound COCCOC(=O)C(C(=O)N1CCC(c2nc(C3=NOC(c4ccccc4OS(C)(=O)=O)C3)cs2)CC1)n1nc(C(F)F)cc1C(F)F (stereo not drawn) with Phytophthora infestans.
96

State measured Eff. % (preventive efficacy) of the compound CCOC(=O)C(C(=O)N1CCC(c2nc(C3=NOC(c4c(Cl)cccc4OS(C)(=O)=O)C3)cs2)CC1)n1nc(C(F)F)cc1C(F)F (stereo not drawn) with Phytophthora infestans.
95

State measured Eff. % (preventive efficacy) of the compound C#CCOc1cccc(F)c1C1CC(c2csc(C3CCN(C(=O)C(C(=O)OCCOC)n4nc(C(F)F)cc4C(F)F)CC3)n2)=NO1 (stereo not drawn) with Phytophthora infestans.
96

State measured Eff. % (preventive efficacy) of the compound C#CCOc1cccc(Cl)c1C1CC(c2csc(C3CCN(C(=O)C(C(=O)OCC)n4nc(C(F)F)cc4C(F)F)CC3)n2)=NO1 (stereo not drawn) with Phytophthora infestans.
98

State measured Eff. % (preventive efficacy) of the compound CCOC(=O)C(C(=O)N1CCC(c2nc(C3=NOC(c4c(F)cccc4OS(C)(=O)=O)C3)cs2)CC1)n1nc(C(F)F)cc1C(F)F (stereo not drawn) with Phytophthora infestans.
95

State measured Eff. % (preventive efficacy) of the compound CC(C)OC(=O)C(C(=O)N1CCC(c2nc(C3=NOC(c4ccccc4OS(C)(=O)=O)C3)cs2)CC1)n1nc(C(F)F)cc1C(F)F (stereo not drawn) with Phytophthora infestans.
70
